Experiment: NCI Yeast Anticancer Drug Screen. Data for the cln2 rad14 strain (AID 165);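 note: 0% = growth equal to vehicle treated cultures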
Details: S. cerevisiae cln2 rad14 strain, at 5.0 µM (retest, dose inferred, filed as 0.5), hits give high values
Method: Growth inhibition of yeast strains with defined genetic alterations is measured as a screen for potential anti-cancer activity. Selected strains with alterations in DNA damage repair or cell cycle control were exposed to compounds and growth inhibition was measured relative to vehicle treated controls. The strain used in this assay is cln2 rad14
This is part of a sample that, as a whole, favours compounds with a hit. Of some 79,000 tested, about 15% had one in any assay. Calls of active or inactive are those of the source. Cut-off read from the data, not from the text of the source: active = growth inhibition above about 70%; inactive = the rest.
List of growth inhibition values.

[
  {
    "Molecule": "CCN1CC(=O)N(C)C1=S",
    "growth inhibition": "20% (inactive)"
  },
  {
    "Molecule": "CCCCCCC(/C=C/c1c(Cl)cccc1Cl)=N\\O",
    "growth inhibition": "-1% (inactive)"
  },
  {
    "Molecule": "CSc1ncnc2nn(C3OC(COC(=O)c4ccccc4)C(OC(=O)c4ccccc4)C3OC(=O)c3ccccc3)nc12 (stereo not drawn)",
    "growth inhibition": "-1% (inactive)"
  },
  {
    "Molecule": "CC(=O)Nc1[c-]cccc1.CC(=O)Nc1[c-]cccc1.CC(=O)O.CC(=O)O.[Pd].[Pd]",
    "growth inhibition": "-7% (inactive)"
  },
  {
    "Molecule": "N#CC1CCC(c2ccccc2)(c2ccccc2)C1=O (stereo not drawn)",
    "growth inhibition": "-2% (inactive)"
  },
  {
    "Molecule": "CN(C)CCOc1cc2c(c3ccccc13)-c1ccccc1C2O (stereo not drawn)",
    "growth inhibition": "1% (inactive)"
  },
  {
    "Molecule": "Cc1cc2ccccc2c[n+]1Cc1ccc2ccccc2n1",
    "growth inhibition": "-8% (inactive)"
  },
  {
    "Molecule": "O=C1C=C(c2ccccc2)S(=O)(=O)c2c(O)cccc21",
    "growth inhibition": "46% (inactive)"
  },
  {
    "Molecule": "CC(C)(C)OC(=O)N[C@H]1CC2(C=C(Cl)C(=O)C(Cl)=C2)OC1=O",
    "growth inhibition": "13% (inactive)"
  },
  {
    "Molecule": "CCCCCCCCCC(=O)CC(=O)c1ccc(O)cc1O",
    "growth inhibition": "37% (inactive)"
  },
  {
    "Molecule": "COC(=O)/C(C(C)=O)=C(\\OC(C)=O)c1ccc(OC)c(OC)c1",
    "growth inhibition": "-11% (inactive)"
  },
  {
    "Molecule": "CCOC(=O)/C(=C/c1ccc(Cl)cc1)N(CC)CC",
    "growth inhibition": "43% (inactive)"
  },
  {
    "Molecule": "CCc1nc(N)nc(N)c1-c1ccc(NCCCCCCCCCCCCN)c([N+](=O)[O-])c1",
    "growth inhibition": "-24% (inactive)"
  },
  {
    "Molecule": "Nc1ncc(C(=O)c2ccccc2)cc1[N+](=O)[O-]",
    "growth inhibition": "-56% (inactive)"
  },
  {
    "Molecule": "O=C1C(=O)c2ccc(Br)cc2C(O)=C1C(c1ccccc1)c1ccccc1",
    "growth inhibition": "24% (inactive)"
  },
  {
    "Molecule": "CCC/C(=N\\O)S(=O)(=O)c1ccc(NN=O)nc1",
    "growth inhibition": "-31% (inactive)"
  },
  {
    "Molecule": "CN(C)c1ccc(N=Nc2ccc3c4c(cccc24)-c2ccccc2-3)cc1",
    "growth inhibition": "-1% (inactive)"
  },
  {
    "Molecule": "Cc1nc2c(cnn2-c2ccccc2)c(=O)o1",
    "growth inhibition": "-52% (inactive)"
  },
  {
    "Molecule": "c1cc[c]([Ge]([O]c2cccc3cccnc23)([c]2ccccc2)[c]2ccccc2)cc1",
    "growth inhibition": "6% (inactive)"
  },
  {
    "Molecule": "COS(=O)c1cc(Cl)cc(Cl)c1OC(=O)CSSCC(=O)Oc1c(Cl)cc(Cl)cc1S(=O)OC (stereo not drawn)",
    "growth inhibition": "60% (inactive)"
  },
  {
    "Molecule": "Cc1nc(N)nn1C",
    "growth inhibition": "-4% (inactive)"
  },
  {
    "Molecule": "Cc1ccc2c(c1C)-c1c(ccc(C)c1C)C(=O)C2=O",
    "growth inhibition": "-14% (inactive)"
  },
  {
    "Molecule": "Cc1c2cnccc2c(C)c2c1c1ccccc1n2CCCN",
    "growth inhibition": "17% (inactive)"
  }
]

----------
assay: NCI Yeast Anticancer Drug Screen. Data for the mlh1 rad18 strain (AID 175); conditions: S. cerevisiae mlh1 rad18 strain growth inhibition; at 50.0 µM; hits give high values
The panel holds about 79,000 compounds, 15% with a hit somewhere; the sample as a whole holds those more often.
List of growth inhibition values.
Observable: growth inhibition (%)

[
  {
    "Compound": "C/C(=N/NC(=S)NCc1ccccc1)c1ncccn1",
    "Observable": "growth inhibition",
    "Result Number": 98.9
  },
  {
    "Compound": "Nc1nnc2nc(C(C(=O)c3ccccc3Cl)c3nc4nnc(N)n4[nH]c3=O)c(=O)[nH]n12",
    "Observable": "growth inhibition",
    "Result Number": 96.5
  },
  {
    "Compound": "CC(O)(CO)CC(C)(O)CO (stereo not drawn)",
    "Observable": "growth inhibition",
    "Result Number": -7.45
  },
  {
    "Compound": "CCN(CCO)CC1OC(OC)C2OC(C)(C)OC12 (stereo not drawn)",
    "Observable": "growth inhibition",
    "Result Number": 35.7
  },
  {
    "Compound": "[N-]=[N+]=Nc1c([N+](=O)[O-])c(=O)n(-c2ccccc2)c2ccccc12",
    "Observable": "growth inhibition",
    "Result Number": 68.2
  },
  {
    "Compound": "O=C(O)c1ccc([N+](=O)[O-])cc1.[Ag]",
    "Observable": "growth inhibition",
    "Result Number": 99.2
  },
  {
    "Compound": "COC(=O)c1c(COC(=O)NC(C)C)c2n(c1C)CS(=O)(=O)C2",
    "Observable": "growth inhibition",
    "Result Number": 97.7
  },
  {
    "Compound": "COc1cccc(=O)cc1",
    "Observable": "growth inhibition",
    "Result Number": 76.4
  },
  {
    "Compound": "CC(=O)Nc1ccc(/C=c2\\sc3nnc(-c4cccnc4)n3c2=O)cc1",
    "Observable": "growth inhibition",
    "Result Number": 86.5
  },
  {
    "Compound": "O=C(Nc1ccc(F)c(Cl)c1)Oc1ccc(Br)cc1Br",
    "Observable": "growth inhibition",
    "Result Number": 89.5
  },
  {
    "Compound": "O=C(O)C1CCCCC1.[Ag]",
    "Observable": "growth inhibition",
    "Result Number": 90.5
  },
  {
    "Compound": "COc1c(O)cc(C=O)cc1[N+](=O)[O-]",
    "Observable": "growth inhibition",
    "Result Number": 8.1
  },
  {
    "Compound": "CN(C)Cc1cc(C(C)(C)C)cc(C2CCCCC2)c1O",
    "Observable": "growth inhibition",
    "Result Number": 92.4
  },
  {
    "Compound": "O=c1c2ccccc2nc(-c2ccccc2)n1NC(=S)Nc1ccc(Cl)cc1[N+](=O)[O-]",
    "Observable": "growth inhibition",
    "Result Number": 25.8
  },
  {
    "Compound": "CC(C)(C)c1ccc2c(c1)C(O)(c1ccccc1)C1OC1(C(C)(C)C)C2=O (stereo not drawn)",
    "Observable": "growth inhibition",
    "Result Number": 93.2
  },
  {
    "Compound": "Cc1cc(O)ccc1C1(c2ccc(F)cc2)OC(=O)c2ccccc21 (stereo not drawn)",
    "Observable": "growth inhibition",
    "Result Number": 89.6
  },
  {
    "Compound": "CN(C)c1ccc(/C=C(/C#N)c2ccc(Cl)cc2)cc1",
    "Observable": "growth inhibition",
    "Result Number": 5.5
  },
  {
    "Compound": "O=[N+]([O-])c1cc(Cl)cc2c1nc(NCCO)c1ccccc12",
    "Observable": "growth inhibition",
    "Result Number": 89.5
  },
  {
    "Compound": "O=C1c2ccccc2C(=O)c2c1ccc(O)c2O",
    "Observable": "growth inhibition",
    "Result Number": 79
  },
  {
    "Compound": "Cc1ccccc1NC(=O)c1cc2cc(N=Nc3ccccc3C(=O)O)ccc2oc1=O",
    "Observable": "growth inhibition",
    "Result Number": 96.5
  },
  {
    "Compound": "CC(C)(C)c1c2c(c(C(C)(C)C)c3c1OCN(Cc1ccccc1)C3)OCN(Cc1ccccc1)C2",
    "Observable": "growth inhibition",
    "Result Number": 41.5
  },
  {
    "Compound": "BrC(Br)([P+](c1ccccc1)(c1ccccc1)c1ccccc1)[P+](c1ccccc1)(c1ccccc1)c1ccccc1",
    "Observable": "growth inhibition",
    "Result Number": 78.2
  },
  {
    "Compound": "CCC(C(=O)CCN(C)C)(c1ccccc1)c1ccccc1",
    "Observable": "growth inhibition",
    "Result Number": 99.5
  }
]
